Cited source for all entries: patent US8796324B2

Target: human V2 receptor (Homo sapiens, UniProt P30518)
Construct: co-transfected with promiscuous G-alpha-16)
Sequence (P30518 whole entry): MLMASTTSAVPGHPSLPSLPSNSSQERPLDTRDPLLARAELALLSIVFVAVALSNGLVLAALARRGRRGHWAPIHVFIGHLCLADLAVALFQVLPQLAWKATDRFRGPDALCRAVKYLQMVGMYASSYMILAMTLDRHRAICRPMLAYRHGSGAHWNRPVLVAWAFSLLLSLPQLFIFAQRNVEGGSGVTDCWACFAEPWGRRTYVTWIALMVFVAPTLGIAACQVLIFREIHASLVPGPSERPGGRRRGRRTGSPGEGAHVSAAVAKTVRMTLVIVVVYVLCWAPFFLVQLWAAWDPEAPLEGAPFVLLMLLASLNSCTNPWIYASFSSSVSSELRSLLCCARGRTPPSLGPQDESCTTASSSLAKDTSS
Test: Cellular in vitro assay for determining the vasopressin receptor activity (aequorin luminescence)
Details: CHO cell line transfected with the human V2 receptor (and Gα16); agonist [Arg8]-vasopressin; read-out: IC50 hV2
pIC50: −log10 of the molar value.
parameter.measured: pIC50

A. NC(=O)NCC(NC(=O)Cn1nc(-c2ccc(Cl)cc2)n(C[C@H](O)C(F)(F)F)c1=O)c1cccc(C(F)(F)F)c1 (single isomer, unassigned) [Example 57]
B. O=C(Cn1nc(-c2ccc(Cl)cc2)n(C[C@H](O)C(F)(F)F)c1=O)NC(CC(F)(F)F)c1ccccc1 (stereo partly shown) [Example 90]
C. O=C(Cn1nc(-c2ccc(Cl)cc2)n(C[C@H](O)C(F)(F)F)c1=O)NC(c1cccc(C(F)(F)F)c1)C(O)C(F)(F)F (mixture of isomers) [Example 78]
D. C=CCn1c(-c2ccc(Cl)cc2)nn(CC(=O)NC(CO)c2cccc(Cl)c2F)c1=O (stereo not shown) [Example 168]
query: Task for the reader: rank each entry by its pIC50, from the minimum upward. Show the ranking through the labels, in the order asked for.
result: B, D, C, A

====

Molecular target: human V2 receptor (Homo sapiens, UniProt P30518)
Construct: co-transfected with promiscuous G-alpha-16)
Assay: Cellular in vitro assay for determining the vasopressin receptor activity (aequorin luminescence)
Settings: CHO cell line transfected with the human V2 receptor (and Gα16); agonist [Arg8]-vasopressin; read-out: IC50 hV2
pIC50: −log10 of the molar value.
parameter.measured: pIC50

compound	pIC50
O=C(Cn1nc(-c2ccc(Cl)cc2)n(Cc2ccccc2F)c1=O)NC(CO)c1cccc(F)c1F (stereo not drawn) [Example 184]	7.58
C[C@@](COC(N)=O)(NC(=O)Cn1nc(-c2ccc(Cl)cc2)n(C[C@H](O)C(F)(F)F)c1=O)c1cccc(C(F)(F)F)c1 [Example 45]	8.60
NC(=O)NCC(NC(=O)Cn1nc(-c2ccc(Cl)cc2)n(C[C@H](O)C(F)(F)F)c1=O)c1ccccc1C(F)(F)F (single isomer, unassigned) [Example 60]	8.35

a. CN(C)S(=O)(=O)CC(NC(=O)Cn1nc(-c2ccc(Cl)cc2)n(C[C@H](O)C(F)(F)F)c1=O)c1cccc(C(F)(F)F)c1 (single isomer, unassigned) [Example 141]
b. NC(=O)NCC(NC(=O)Cn1nc(-c2ccc(Cl)cc2)n(C[C@H](O)C(F)(F)F)c1=O)c1cccc(Cl)c1Cl (single isomer, unassigned) [Example 62]
c. CS(=O)(=O)CC(NC(=O)Cn1nc(-c2ccc(Cl)cc2)n(C[C@H](O)C(F)(F)F)c1=O)c1ccccc1C(F)(F)F (single isomer, unassigned) [Example 136]
query: Sort these compounds on pIC50 so the largest reading comes first. Show the ranking through the labels, in the order asked for.
result: b, a, c

====

Target: human V1a receptor (Homo sapiens)
Construct: expressed in transfected cells; host or cells: CHO K1 (constitutively expressing modified aequorin)
Sequence (P37288 whole entry): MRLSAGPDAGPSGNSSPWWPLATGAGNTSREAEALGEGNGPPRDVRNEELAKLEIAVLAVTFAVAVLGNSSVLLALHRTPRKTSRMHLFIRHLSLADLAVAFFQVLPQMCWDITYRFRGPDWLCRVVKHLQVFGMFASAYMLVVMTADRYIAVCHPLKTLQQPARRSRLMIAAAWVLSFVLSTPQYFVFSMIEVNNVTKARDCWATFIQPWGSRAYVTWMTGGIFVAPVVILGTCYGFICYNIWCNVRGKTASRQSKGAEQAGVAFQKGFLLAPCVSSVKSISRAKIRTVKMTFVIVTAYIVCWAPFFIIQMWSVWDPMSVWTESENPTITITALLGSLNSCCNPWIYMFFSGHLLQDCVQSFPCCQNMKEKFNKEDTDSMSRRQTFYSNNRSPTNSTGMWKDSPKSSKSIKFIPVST
Assay: Cellular in vitro assay for determining the vasopressin receptor activity (aequorin luminescence)
Format: cell-based
Conditions: CHO cell line transfected with the human V1a receptor; agonist [Arg8]-vasopressin; read-out: IC50 hV1a
pIC50: −log10 of the molar value.
parameter.measured: pIC50

molecule	target.or.test.system	meas.value
C[C@@](COC(N)=O)(NC(=O)Cn1nc(-c2ccc(Cl)cc2)n(C[C@H](O)C(F)(F)F)c1=O)c1cccc(C(F)(F)F)c1	human V1a receptor (Homo sapiens)	8.26
NC(=O)OCC[C@H](NC(=O)Cn1nc(-c2ccc(Cl)cc2)n(C[C@H](O)C(F)(F)F)c1=O)c1ccccc1C(F)(F)F	human V1a receptor (Homo sapiens)	8.80
NC(=O)OCC(NC(=O)Cn1nc(-c2ccc(Cl)cc2)n(CCC(F)(F)F)c1=O)c1ccccc1C(F)(F)F (single isomer, unassigned)	human V1a receptor (Homo sapiens)	8.85
O=C(Cn1nc(-c2ccc(Cl)cc2)n(C[C@H](O)C(F)(F)F)c1=O)NC(CO)c1cccc(C(F)F)c1 (stereo partly drawn)	human V1a receptor (Homo sapiens)	7.91
NC(=O)OCC(NC(=O)Cn1nc(-c2ccc(Cl)cc2)n(C[C@H](O)C(F)(F)F)c1=O)c1ccccc1C(F)(F)F (single isomer, unassigned)	human V1a receptor (Homo sapiens)	9.00

P. O=C(Cn1nc(-c2ccc(Cl)cc2)n(C[C@H](O)C(F)(F)F)c1=O)NC(CN1CCOC1=O)c1cccc(C(F)(F)F)c1 (single isomer, unassigned)
Q. O=C(Cn1nc(-c2ccc(Cl)cc2)n(C[C@H](O)C(F)(F)F)c1=O)NC(c1ccccc1)C(O)C(F)(F)F (stereo partly drawn)
R. NC(=O)NCC(NC(=O)Cn1nc(-c2ccc(Cl)cc2)n(C[C@H](O)C(F)(F)F)c1=O)c1cccc(Cl)c1Cl (single isomer, unassigned)
query: Hey, quick one: sort these by pIC50, low to high? Show the ranking through the labels, in the order asked for.
result: Q, R, P
(Q: 6.60, R: 8.44, P: 8.70)
